Each entry below carries its recorded activity score.
- Test Description: M. tuberculosis BioA enzyme inhibitors, biochemical, single concentration, dry powder (AID 743184)
- Protocol Conditions: at 9.99 µM; active compounds read high
// note: answer is a bare numeric in %

Recorded activity score, per entry:
{"columns": ["Structure Smiles", "Parameter", "Result Unit", "Reported Measurement"],
 "data": [
  ["O=C(Nc1ccc(F)cc1)N1CCN(c2ccccc2)CC1", "activity score", "%", 5.21],
  ["CC(=O)c1ccc(N2CCN(C(=O)c3cccnc3)CC2)cc1", "activity score", "%", -8.01],
  ["O=C(c1ccc2c(c1)OCO2)N1CCN(c2ccc(F)cc2)CC1", "activity score", "%", -13.9],
  ["CC(=O)c1ccc(N2CCN(Cc3ccc4c(c3)OCO4)CC2)cc1", "activity score", "%", -2],
  ["CC(=O)c1ccc(N2CCN(C(=O)c3ccc(Cl)cc3)CC2)cc1", "activity score", "%", 5.46],
  ["CC(=O)c1ccc(N2CCN(C(=O)c3ccc(C)cc3)CC2)cc1", "activity score", "%", -7.19]
]}

Problem: Please give the measured activity score for this compound: CC(=O)c1ccc(N2CCN(C(=O)c3cccc(F)c3)CC2)cc1
Solution: -6.65

Problem: What do you get for COc1ccc(NC(=O)N2CCN(c3ccccc3)CC2)cc1 ?
Solution: -12.2

* * *

Each entry below carries its recorded activity score.
- Test Description: M. tuberculosis BioA enzyme inhibitors, biochemical, single concentration, dry powder (AID 743184)
- Protocol Conditions: at 9.99 µM; active compounds read high
// note: answer is a bare numeric in %

{"columns": ["Structure Smiles", "activity score / %"],
 "data": [
  ["COc1cccc(NC(=O)N2CCN(c3ccccc3)CC2)c1", 2.06],
  ["O=C(Nc1cccnc1)N1CCN(c2ccccc2)CC1", -4.1],
  ["O=C(Nc1cccc(F)c1)N1CCN(c2ccccc2)CC1", -3.46],
  ["CC(=O)c1ccc(N2CCN(C(=O)c3cccc(Cl)c3)CC2)cc1", -11.7],
  ["O=C(Nc1ccc2snnc2c1)N1CCCCC1", -5.56],
  ["Cc1nc2ccc(NC(=O)N3CCN(c4ccccc4)CC3)cc2s1", -0.913]
]}

Now take the following molecule into account.
Problem: Please give the measured activity score for this molecule: Cc1ccc(/C=C(\CCC(=O)O)c2nc3ccccc3s2)cc1
Solution: -6

* * *

- Test Description: M. tuberculosis BioA enzyme inhibitors, biochemical, single concentration, dry powder (AID 743184)
- Protocol Conditions: at 9.99 µM; active compounds read high
Active and inactive are the calls of the source. How the calls were made is not given here.
Each entry below carries its recorded activity score.

Recorded activity score, per entry:
{"columns": ["Structure Smiles", "activity score"],
 "data": [
  ["Cc1cc(C)n2nc(C(=O)Nc3cccnc3)cc2n1", "27.1% (inactive)"],
  ["O=C(c1ccc2c(c1)OCO2)N1CCN(c2ccccc2)CC1", "0.078% (inactive)"],
  ["COc1ccc(-c2cc(C(F)(F)F)n3nc(C(=O)Nc4cccnc4)cc3n2)cc1", "-9.52% (inactive)"],
  ["CC(=O)c1ccc(N2CCN(C(=O)c3ccc(Br)cc3)CC2)c(F)c1", "7.7% (inactive)"],
  ["CC(=O)c1ccc(N2CCN(C(=O)c3ccc(F)cc3)CC2)cc1", "-3.75% (inactive)"],
  ["Cc1cccc(/C=C(\\CCC(=O)O)c2nc3ccccc3s2)c1", "1.92% (inactive)"],
  ["CCc1ccc(N2CCN(C(=O)c3ccc4c(c3)OCO4)CC2)cc1", "-0.719% (inactive)"],
  ["Cc1ccc(/C=C(\\CCCC(=O)O)c2nc3ccccc3s2)cc1[N+](=O)[O-]", "1.05% (inactive)"]
]}

Problem: Please give the measured activity score for this molecule: O=C(c1ccc2c(c1)OCO2)N1CCN(Cc2ccccc2)CC1
Solution: -10.2% (inactive)

Problem: What do you get for O=C(Nc1ccc2[nH]ccc2c1)N1CCN(c2ccccc2)CC1 ?
Solution: 29.5% (inactive)

Problem: What do you get for O=C(Nc1ccccc1)N1CCN(c2ccccc2)CC1 ?
Solution: -4.99% (inactive)

Problem: What do you get for COc1cccc(NC(=O)CCC2CCN(C(=O)c3ccc(C(C)=O)s3)CC2)c1 ?
Solution: 1.4% (inactive)

Problem: What do you get for Cc1ccccc1/C=C(\CCC(=O)O)c1nc2ccccc2s1 ?
Solution: -6.51% (inactive)
